Protocol Details: Phase solubility studies with HP-β-CD
Type: physicochemical
Measurement Parameters: thermodynamic from solid; 37 °C, pH 8.5 sodium borate buffer, with HP-β-CD; read-out: S0 (solubility with HP-β-CD)
Assay Readout: solubility at 60 min (µM)

What does the record list as solubility at 60 min for COc1ccc(C2C/C(=N\NC(=O)c3ccncc3)c3c(O)cc(O)cc3O2)cc1O (racemic) ?
14

[a] COc1ccc(C2CC(=O)c3c(O)cc(O)cc3O2)cc1O (stereo not shown) [Hesperetin, 3′,5,7-Trihydroxy-4′-methoxyflavanone]
[b] COc1ccc(C2C/C(=N\NC(=O)c3ccccc3)c3c(O)cc(O)cc3O2)cc1O (racemic)
[c] COc1ccc(C2CC(=NNC(N)=S)c3c(O)cc(O)cc3O2)cc1O (stereo not shown)
Put the entries in order of solubility at 60 min, starting with the largest number. Output the labels ranked as instructed.
c, a, b
(c: 160 µM, a: 110 µM, b: 15 µM)

---

System: Listeria monocytogenes ATCC 19112
Protocol Details: Antagonistic activity, diffusion-well method
Format: cell-based
Measurement Parameters: ATCC19112, compounds at 2.5 µM, wells 8 mm, 37 °C, 18 h
# reported zone of inhibition at 2.5 µM; entries follow
# number only, unit mm dropped from output

Recorded results for 3 compounds are shown here.
Please tell me: zone of inhibition at 2.5 µM of COc1ccc(C2CC(=NNC(N)=S)c3c(O)cc(O)cc3O2)cc1O (centres unmarked) , system Listeria monocytogenes ATCC 19112?
0

Try this compound too: COc1ccc(C2C/C(=N\NC(=O)c3ccccc3)c3c(O)cc(O)cc3O2)cc1O (racemic)
0

Try this compound too: CC(O)COC[C@H]1O[C@@H]2O[C@H]3[C@H](O)[C@@H](O)[C@@H](O[C@H]4[C@H](O)[C@@H](O)[C@@H](O[C@H]5[C@H](O)[C@@H](O)[C@@H](O[C@H]6[C@H](O)[C@@H](O)[C@@H](O[C@H]7[C@H](O)[C@@H](O)[C@@H](O[C@H]8[C@H](O)[C@@H](O)[C@@H](O[C@H]1[C@H](O)[C@H]2O)O[C@@H]8COCC(C)O)O[C@@H]7COCC(C)O)O[C@@H]6COCC(C)O)O[C@@H]5COCC(C)O)O[C@@H]4COCC(C)O)O[C@@H]3COCC(C)O (stereo partly drawn) [HP-β-CD, (2-Hydroxypropyl)-β-cyclodextrin]
0

Further cases:
Please tell me: zone of inhibition at 2.5 µM of COc1ccc(C2C/C(=N\NC(=O)c3ccncc3)c3c(O)cc(O)cc3O2)cc1O (racemic) , system Listeria monocytogenes ATCC 19112?
0

Try this compound too: COc1ccc(C2CC(=O)c3c(O)cc(O)cc3O2)cc1O (centres unmarked) [Hesperetin, 3′,5,7-Trihydroxy-4′-methoxyflavanone]
0

---

Protocol Details: Phase solubility studies with HP-β-CD
Type: physicochemical
Measurement Parameters: 37 °C, pH 8.5, with HP-β-CD
Assay Readout: Kc complexation constant (M⁻¹)

[A] COc1ccc(C2C/C(=N\NC(=O)c3ccncc3)c3c(O)cc(O)cc3O2)cc1O (racemic)
[B] COc1ccc(C2CC(=NNC(N)=S)c3c(O)cc(O)cc3O2)cc1O (stereo not shown)
[C] COc1ccc(C2CC(=O)c3c(O)cc(O)cc3O2)cc1O (stereo not shown) [Hesperetin, 3′,5,7-Trihydroxy-4′-methoxyflavanone]
[D] COc1ccc(C2C/C(=N\NC(=O)c3ccccc3)c3c(O)cc(O)cc3O2)cc1O (racemic)
Arrange by Kc complexation constant, high to low. Output the labels ranked as instructed.
C, D, A, B
(C: 1703 M⁻¹, D: 100 M⁻¹, A: 28 M⁻¹, B: 18 M⁻¹)
